Values were extracted from patent US20140093973A1.

Target: soluble HLA-A*0201 (sHLA-A*0201) (human)

>  <binder>
KLGEFYNQMM (modifications not checked) […]

>  <IC50>
3.06 µM

$$$$
